Where do the numbers come from? From PubChem BioAssay (Tox21).

experiment-description: qHTS assay to identify small molecule antagonists of the androgen receptor (AR) signaling pathway - cell viability counter screen (AID 743033; further: nearly all actives have a fitted effect of over 45% in size)
condition-set: AR-bla HEK293 viability, CellTiter-Glo luminescence, 16 h; series mostly up to 58.5 µM
Inconclusive results are not listed. Active and inactive are the calls of the source. The call rests on the fitted dose curve; in most records, active means well fitted cell-killing curve with a large enough effect in the repeat runs; inconclusive means weak or mixed curves; inactive means no such curve, though single readings can be large or run the other way.
Please answer using one outcome listed in label 1 = active, label 0 = inactive

Brc1ccccc1 : label 0
CCOS(C)(=O)=O : label 0
CCC(COC(=O)c1cc(OC)c(OC)c(OC)c1)(c1ccccc1)N(C)C (centres undefined) : label 0
COc1cc(CC(C)N)cc2c1OCO2 (centres undefined) : label 0
Cl/C=C\C[N+]12CN3CN(CN(C3)C1)C2 : label 0

Problem: // param item: C=C(C#N)CCC#N ; yields the recorded call
Solution: label 0

Problem: // param item: OC(c1ccc(Cl)cc1)(c1ccc(Cl)cc1)c1cccnc1 ; yields the recorded call
Solution: label 1

Problem: // param item: C=CC(C)=O ; yields the recorded call
Solution: label 0

Problem: // param item: c1ccoc1 ; yields the recorded call
Solution: label 0

Problem: // param item: COc1c(C(C)(C)C)cc([N+](=O)[O-])c(C)c1[N+](=O)[O-] ; yields the recorded call
Solution: label 0

Problem: // param item: O=C(NCc1cccnc1)Nc1ccc([N+](=O)[O-])cc1 ; yields the recorded call
Solution: label 0

Problem: // param item: CCOP(=S)(OCC)SCSCC ; yields the recorded call
Solution: label 0

Problem: // param item: CCCCCCC#N ; yields the recorded call
Solution: label 0

Problem: // param item: O=[N+]([O-])c1cc(C(F)(F)F)cc([N+](=O)[O-])c1Cl ; yields the recorded call
Solution: label 0
